Listing of entries alongside the reported TCF/Wnt firefly luciferase reporter signal.
# Test system: DLD1
# Experimental Protocol: TCF/Wnt firefly luciferase reporter signal relative to plate median (fraction of plate median); higher = higher Wnt reporter signal
# Conditions Used: 10 µM; treatment time 24 h; reporter: TCF4/Wnt
Measured Endpoint: TCF/Wnt firefly luciferase reporter signal

Compound: Cc1c(CN2CCN(C(=O)[C@H](C)O)CC2)sc2c(N3CCOCC3)nc(-c3cnc(N)nc3)nc12
Assay Value: 0.419
--
Compound: COc1cc2/c(=N/c3ccc(Br)cc3F)nc[nH]c2cc1OCC1CCN(C)CC1 [Vandetanib (Zactima)]
Assay Value: 0.773
--
Compound: COc1ccc(-c2ccc3c(N4CCOCC4)nc(N4C[C@@H](C)O[C@@H](C)C4)nc3n2)cc1CO
Assay Value: 0.597
--
Compound: CO[C@@H](C(=O)N1Cc2[nH]nc(NC(=O)c3ccc(N4CCN(C)CC4)cc3)c2C1)c1ccccc1
Assay Value: 1.41
--
Compound: COc1cc2ncnc(Nc3ccc(F)c(Cl)c3)c2cc1OCCCN1CCOCC1
Assay Value: 0.812
--
Compound: CCOc1cc2ncc(C#N)c(Nc3ccc(OCc4ccccn4)c(Cl)c3)c2cc1NC(=O)/C=C/CN(C)C
Assay Value: 0.763
--
Compound: FC(F)c1nc2ccccc2n1-c1nc(N2CCOCC2)nc(N2CCOCC2)n1
Assay Value: 0.891
--
Compound: CCCNC(=O)Nc1ccc(Oc2ncnc3cc(OC)c(OC)cc23)cc1Cl
Assay Value: 1.11
--
Compound: O=C1NCCc2[nH]c(-c3ccncc3)cc21
Assay Value: 0.44

###

# System: HCT116
# Experimental Protocol: cell viability (CellTiter-Glo) relative to plate median (fraction of plate median); higher = more viable cells
# Conditions Used: 5 µM; treatment time 24 h; reporter: TCF4/Wnt

Molecule: O=C1c2c(O)cccc2C([C@@H]2O[C@H](CO)[C@@H](O)[C@H](O)[C@H]2O)c2cc(CO)cc(O)c21 (some centres undefined)
cell viability: 1.1
--
Molecule: C[C@@H]1Cc2cc(O)cc(O)c2C(=O)O[C@H](C)CC(=O)O[C@H](CO)CC(=O)O[C@H](C)Cc2cc(O)cc(O)c2C(=O)O[C@H](C)CC(=O)O1
cell viability: 1.14
--
Molecule: C[C@@H]1CC[C@@]2(OC1)O[C@H]1C[C@H]3[C@@H]4CC[C@H]5C[C@@H](O)CC[C@]5(C)[C@H]4CC[C@]3(C)[C@H]1[C@@H]2C
cell viability: 0.875
--
Molecule: CC(C)=CCC[C@@H](C)[C@@H]1CC[C@]2(C)C3=C(CC[C@@]12C)[C@@]1(C)CC[C@H](O)C(C)(C)[C@@H]1CC3
cell viability: 0.995
--
Molecule: CCOC(=O)[C@@](C)(N)Cc1ccc(O)c(O)c1
cell viability: 0.93
--
Molecule: CC[C@H]1C(=O)OC[C@@H]1Cc1cncn1C
cell viability: 0.948
--
Molecule: COc1ccc2c(c1)O[C@@H]1COc3cc(OC)c(OC)cc3[C@@H]1C2=O
cell viability: 0.841
--
Molecule: COc1cc(O)c2c(c1)C(=O)c1cc(C)cc(O)c1C2=O
cell viability: 0.979
--
Molecule: Cc1ccccc1C(OCCN(C)C)c1ccccc1 (centres undefined)
cell viability: 0.894

###

# Tested on: SW480
# Experimental Protocol: TCF/Wnt firefly luciferase reporter signal relative to plate median (fraction of plate median); higher = higher Wnt reporter signal
# Conditions Used: 5 µM; treatment time 24 h; reporter: 7TFP
Measured Endpoint: TCF/Wnt firefly luciferase reporter signal

Compound: O=C(O)CCCC[C@@H]1SC[C@@H]2NC(=O)N[C@@H]21
Assay Value: 0.963
--
Compound: COc1cccc2c1C(=O)c1c(O)c3c(c(O)c1C2=O)C[C@@](O)(C(C)=O)C[C@@H]3O[C@H]1C[C@H](NC=O)[C@H](O)[C@H](C)O1
Assay Value: 1.05
--
Compound: O=c1cccc2ccc(O)c(O)c2c1O
Assay Value: 1.06
--
Compound: CC1(C)C(O[C@@H]2OC[C@@H](O)[C@H](O)[C@H]2O)CC[C@]23CC24CC[C@]2(C)[C@@H]([C@@]5(C)CC[C@@H](C(C)(C)O)O5)[C@H](O)C[C@@]2(C)C4C[C@@H](O[C@@H]2O[C@H](CO)[C@@H](O)[C@H](O)[C@H]2O)C13 (some centres undefined)
Assay Value: 1.07
--
Compound: Nc1ccccc1C(=O)CC(N)C(=O)O (centres undefined)
Assay Value: 1.08
--
Compound: COc1ccccc1OCCNCC(O)COc1cccc2[nH]c3ccccc3c12 (centres undefined)
Assay Value: 1.07
--
Compound: CC(=O)C12OC(C)(c3ccccc3)OC1CC1C3CCC4=CC(=O)CCC4(C)C3CCC12C (centres undefined)
Assay Value: 0.939
--
Compound: C[C@@H]1C(=O)O[C@H]2C[C@@]34[C@H]5C[C@@H](C(C)(C)C)[C@]36[C@@H](OC(=O)[C@@H]6O)O[C@@]4(C(=O)O5)[C@]21O
Assay Value: 1.03
--
Compound: CN1CCC[C@@H]1Cc1c[nH]c2ccc(CCS(=O)(=O)c3ccccc3)cc12
Assay Value: 1.04
--
Compound: CN1CCCC(n2nc(Cc3ccc(Cl)cc3)c3ccccc3c2=O)CC1 (centres undefined)
Assay Value: 1.06
--
Compound: Cc1ncc([N+](=O)[O-])n1CCO
Assay Value: 0.964
--
Compound: Nc1nc(/C(=C/CC(=O)O)C(=O)N[C@@H]2C(=O)N3C(C(=O)O)=CCS[C@H]23)cs1
Assay Value: 1.01
--
Compound: COc1ccc(-c2cc(C(F)F)nn2-c2ccc(S(N)(=O)=O)cc2)cc1F
Assay Value: 0.995
--
Compound: COc1cc(OC)c2c(=O)c(-c3ccccc3)c(C)oc2c1OC
Assay Value: 0.955
--
Compound: CC(C)=CCc1c2c(c3occ(-c4ccc(O)cc4)c(=O)c3c1O)C=CC(C)(C)O2
Assay Value: 0.914
--
Compound: Oc1ccc2c(c1)OC[C@]1(O)Cc3cc(O)c(O)cc3[C@H]21
Assay Value: 0.909
--
Compound: COc1cccc2c(C)cc(=O)[nH]c12
Assay Value: 1.11
--
Compound: CCCCCNC(=N)N/N=C/c1c[nH]c2ccc(OC)cc12
Assay Value: 1.04
--
Compound: CCCCCCCCCCCCCCCC(=O)OC[C@@H](NC(=O)C(Cl)Cl)[C@H](O)c1ccc([N+](=O)[O-])cc1
Assay Value: 1.02

###

# Test system: SW480
# Experimental Protocol: TCF/Wnt firefly luciferase reporter signal relative to plate median (fraction of plate median); higher = higher Wnt reporter signal
# Conditions Used: 5 µM; treatment time 24 h; reporter: 7TFP
TCF/Wnt firefly luciferase reporter signal below 1 gives 0.0; TCF/Wnt firefly luciferase reporter signal at or above it gives 1.0.

Molecule: C=CCCCCCCCCC(=O)[O-].C=CCCCCCCCCC(=O)[O-].[Zn+2]
Measurement Target: SW480
Answer Label: 0.0
//
Molecule: Cc1onc(-c2ccccc2Cl)c1C(=O)N[C@@H]1C(=O)N2[C@@H]1SC(C)(C)[C@@H]2C(=O)O
Measurement Target: SW480
Answer Label: 0.0
//
Molecule: CC1(C)OC(=O)NC1=O
Measurement Target: SW480
Answer Label: 0.0
//
Molecule: COC(=O)c1c(C)cc(OC(=O)c2c(C)cc(O)c(C=O)c2O)c(C)c1O
Measurement Target: SW480
Answer Label: 1.0
//
Molecule: CC=CC1=C(C(=O)O)N2C(=O)[C@@H](NC(=O)[C@H](N)c3ccc(O)cc3)[C@H]2SC1
Measurement Target: SW480
Answer Label: 1.0
//
Molecule: O=C1NS(=O)(=O)c2ccccc21
Measurement Target: SW480
Answer Label: 0.0
//
Molecule: O=C1OCCN1/N=C/c1ccc([N+](=O)[O-])o1
Measurement Target: SW480
Answer Label: 1.0
//
Molecule: COc1c(Cl)ccc(Cl)c1C(=O)O
Measurement Target: SW480
Answer Label: 0.0
//
Molecule: C=C1C(N)CC2CC1C2(C)C (stereo not drawn) [3-AMINO-beta-PINENE]
Measurement Target: SW480
Answer Label: 0.0

###

# Test system: HCT116
# Experimental Protocol: cell viability (CellTiter-Glo) relative to plate median (fraction of plate median); higher = more viable cells
# Conditions Used: 5 µM; treatment time 24 h; reporter: TCF4/Wnt
Decision: cell viability beneath 1 gives class 1; cell viability meeting or exceeding 1 gives class 0.

Molecule: O=c1c(-c2ccc(O)cc2)coc2cc(O)ccc12
Answer Label: class 1
//
Molecule: CCCCC(=O)O[C@]1(C(=O)CO)[C@@H](C)C[C@H]2[C@@H]3CCC4=CC(=O)C=C[C@]4(C)[C@@]3(F)[C@@H](O)C[C@@]21C
Answer Label: class 0
//
Molecule: CC(C[N+](C)(C)C)OC(N)=O (stereo not given)
Answer Label: class 1
//
Molecule: COc1cc(OC)c2c(=O)c(-c3ccccc3)c(C)oc2c1OC
Answer Label: class 0
//
Molecule: COc1c2c(c(O)c3c4c(c(C)cc13)C1OC3(C(OC)OC)OC1C(O[C@H]1C[C@@H](O)[C@@](O)(C(C)=O)[C@H](C)O1)(O4)C3(O)CO)C(=O)C(O)CC2O[C@H]1C[C@@](C)(O)[C@H](OC(C)=O)[C@H](C)O1 (stereo not given in full) [Trioxacarcin B]
Answer Label: class 0
//
Molecule: COc1cc(C)c2c(=O)cc(-c3ccccc3)oc2c1
Answer Label: class 1
//
Molecule: COc1cc(N)c(Cl)cc1C(=O)NC1CCN(Cc2ccccc2)CC1
Answer Label: class 1
//
Molecule: CC(=O)O[C@H]1C[C@@H](O)C(C)(C)[C@@H]2C[C@@H](OC(C)=O)[C@]3(C)[C@H](CC[C@@]4(C)[C@@H](c5ccoc5)OC(=O)[C@H]5O[C@@]534)[C@@]12C
Answer Label: class 1
//
Molecule: Nc1ccc(S(=O)(=O)Nc2ccccn2)cc1
Answer Label: class 1
//
Molecule: C#C[C@]1(OC(C)=O)CC[C@H]2[C@@H]3CCC4=CC(=O)CC[C@@H]4[C@H]3CC[C@@]21C
Answer Label: class 1
//
Molecule: CC(C)CCCC(C)C1CCC2C3=CCC4CC(O)CCC4(C)C3CCC21C (stereo not given)
Answer Label: class 0
//
Molecule: COc1cc(-c2cc(=O)c3c(O)c(OC)c(OC)c(OC)c3o2)cc(OC)c1OC
Answer Label: class 0
//
Molecule: CC(=O)Nc1ccc(S(=O)(=O)c2ccc(NC(C)=O)cc2)cc1
Answer Label: class 1
//
Molecule: CC(COc1ccccc1)N(CCCl)Cc1ccccc1 (stereo not given)
Answer Label: class 0
//
Molecule: O=C(c1ccccc1)c1ccc2n1CCC2C(=O)O (stereo not given)
Answer Label: class 1

Entry source: the supplement of paper PMC6522484
